Measured values drawn from paper PMC12057046 for this set.

# screen value annotations
B1: TET3 peptide 1705-1720 (methylcytosine dioxygenase TET3), 16-mer library wild type / USP8 rhodanese domain (ubiquitin carboxyl-terminal hydrolase 8, residues 174-317) (parent)
chain 1: GLALWEAKMKQLAERA
chain 2: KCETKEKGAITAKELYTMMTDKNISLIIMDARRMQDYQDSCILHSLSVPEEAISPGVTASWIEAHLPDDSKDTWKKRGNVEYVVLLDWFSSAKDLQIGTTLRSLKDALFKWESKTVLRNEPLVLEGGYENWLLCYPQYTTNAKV

- Variants of: B1
- run-description: peptide-phage display deep mutational scan (M13, 16-mer library, displayed with a C-terminal GGGSG linker encoded by the 3' flank) selected against the GST-tagged USP8 rhodanese domain, four rounds; NGS counts summed over selection …
- condition-summary: with USP8 rhodanese domain (ubiquitin carboxyl-terminal hydrolase 8, residues 174-317), 10 µg GST-bait on MaxiSorp, pre-cleared on GST, 2 h at 4 °C, five washes with 0.05% Tween 20 in PBS, not graded, scale: average over two replicas of the peptide's fractional NGS count
measure-name: screen value

• chain 1 GLALWEAKMKQLAEWA = 0.000125
• chain 1 GSALWEAKMKQLAERA = 1.15e-05
• chain 1 GLALWEAKMKQLLERA = 0.000154
• chain 1 GTALWEAKMKQLAERA = 4.33e-06
• chain 1 GLALWEAKMKQLAERY = 1.58e-05
• chain 1 GLAFWEAKMKQLAERA = 0.000225
• chain 1 GLALVEAKMKQLAERA = 4.33e-06
• chain 1 GLASWEAKMKQLAERA = 4.74e-05
• chain 1 GKALWEAKMKQLAERA = 1.3e-05
• chain 1 NLALWEAKMKQLAERA = 4.46e-05
• chain 1 GLALKEAKMKQLAERA = 8.66e-06
• chain 1 GLYLWEAKMKQLAERA = 0.000177
• chain 1 GLTLWEAKMKQLAERA = 5.18e-05
• chain 1 GLALWYAKMKQLAERA = 1.15e-05
• chain 1 GWALWEAKMKQLAERA = 0.000401
• chain 1 KLALWEAKMKQLAERA = 2.01e-05
• chain 1 GLALWEAKMAQLAERA = 0.0149
• chain 1 GLALWEAKMKQLAERF = 4.33e-06
• chain 1 ELALWEAKMKQLAERA = 6.35e-05
• chain 1 GLALWEAKMKQLAERV = 0.00901
• chain 1 GLALWEAKMKQLHERA = 0.0027
• chain 1 GLALWEAKAKQLAERA = 0.00064
• chain 1 GLALWEAKMKWLAERA = 2.17e-05
• chain 1 GLALWEANMKQLAERA = 2.3e-05
• chain 1 GLALWEAKMKQLAERS = 0.00296
• chain 1 GLALWERKMKQLAERA = 4.33e-06
• chain 1 GLALWEAKMKQLAEFA = 2.3e-05
• chain 1 GLALWGAKMKQLAERA = 0.000196
• chain 1 GVALWEAKMKQLAERA = 0.00764
• chain 1 GLALWSAKMKQLAERA = 0.000221
• chain 1 GLALWEAKMKMLAERA = 0.000201
• chain 1 GLALWEAKMKKLAERA = 1.15e-05
• chain 1 GLDLWEAKMKQLAERA = 0.0209
• chain 1 GLPLWEAKMKQLAERA = 0.000452
• chain 1 GLALWEAKMKQLMERA = 5.89e-05
• chain 1 GLALFEAKMKQLAERA = 4.33e-06
• chain 1 GLALREAKMKQLAERA = 1.58e-05
• chain 1 GLALWDAKMKQLAERA = 9.38e-05
• chain 1 GLALWEAKMKQLAVRA = 0.000238
• chain 1 GLALWEAKMPQLAERA = 8.66e-06
• chain 1 GLALWEAKMMQLAERA = 1.15e-05
• chain 1 GLALWEAKIKQLAERA = 4.74e-05
• chain 1 GLALWEAKMEQLAERA = 0.0209
• chain 1 GLALWEAKMKQLANRA = 6.5e-05
• chain 1 GLALWEAKMKILAERA = 8.66e-06
• chain 1 GLALWEAKMKQLAEQA = 0.0216
